Biological target: T1, PUF4 RNA-binding domain (Saccharomyces cerevisiae, UniProt P25339 537-888)
T1 sequence: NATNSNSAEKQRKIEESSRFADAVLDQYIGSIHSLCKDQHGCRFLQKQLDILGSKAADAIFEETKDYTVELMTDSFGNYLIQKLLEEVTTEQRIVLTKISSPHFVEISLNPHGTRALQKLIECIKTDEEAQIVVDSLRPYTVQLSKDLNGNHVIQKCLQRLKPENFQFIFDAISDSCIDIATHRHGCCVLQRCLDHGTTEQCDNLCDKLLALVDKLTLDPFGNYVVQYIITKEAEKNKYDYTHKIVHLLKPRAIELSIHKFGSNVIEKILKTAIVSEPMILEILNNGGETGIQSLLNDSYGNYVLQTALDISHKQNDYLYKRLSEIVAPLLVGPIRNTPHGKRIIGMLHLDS
Experiment: Mg; RNA-MaP; 20 mM Na-HEPES pH 7.4, 30 mM KOAc, 0.75 mM MgCl2, 0.1% Tween-20, 5% glycerol, 0.1 mg/mL BSA, 2 mM DTT; 25 C; 0.0125-409.6 nM protein
Conditions: tags: N-His6-TEV cleaved; C-SNAP kept, Cy3B-labelled; label: tethered on chip by stalled RNA polymerase

{"columns": ["Binder", "Measurement Units", "Comparison Operator", "Kd"],
 "data": [
  ["ACAAACUUUAGAUAACAAAC (ssRNA) [Ib_S3_P3E.1_K3.1_C3.1_H3.1_[G2T]_A3.1_[T5G]_F3.1_T3.1]", "µM", ">", 2.3],
  ["Ib_S4_P4E.1_K4.1_C4.1_H4.1_[A4G]_A4.1_F4.1_[T8A]_T4.1 (ssRNA) RNA: UUUGACAACUGAUCGUUCUUUCUUGUGUAUAAUUCUUUCUCGAUCAGUUGUCUUU", "µM", "=", 0.00619],
  ["UCUCUUAAACACUUAUUACUUCUCUU (ssRNA) [Id_ii_S1_P5E.4_K5.3_C5.2_[C-2A]_[T-1A]_H5.3_A5.1_F5.1_T5.2_[T11C]_[A12T]]", "µM", ">", 2.3],
  ["UCUCUUUAUAUAUUAUCUCUU (ssRNA) [Ia_S1_P4E.1_K4.1_C4.1_H4.1_[G2A]_A4.1_F4.1_T4.1]", "µM", "=", 0.0141],
  ["ACAAACGCACACUUAUUAAAACAAAC (ssRNA) [Id_ii_S3_P5E.4_K5.3_C5.2_[C-2G]_[T-1C]_H5.3_A5.1_F5.1_T5.2_[T11A]]", "µM", ">", 2.3],
  ["UCUCUUCUUAUAUUAUUACCUCUCUU (ssRNA) [Id_ii_S1_P5E.3_K5.2_C5.2_H5.2_A5.1_F5.1_T5.2_[T11C]_[A12C]]", "µM", "=", 0.571],
  ["UCUCUUUGUAGCACGUCUCUU (ssRNA) [Ic_S1_P4E.1_K4.1_C4.1_H4.1_A4.1_[T5G]_[A6C]_[T7A]_F4.1_[T8C]_[A9G]_T4.1]", "µM", ">", 2.3]
]}
